Data provenance: patent US12404260B2

Test system: secretion of IL6 by OCI-LY3 ABC-DLBCL cells
Assay: Human IL6 Mesoscale assay (OCI-LY3)
Format: cell-based
Settings: 24 h incubation, IL6 in supernatant
Description: NFKB signaling regulates the secretion of multiple cytokines, including IL6 and IL10. Secretion of the cytokines IL6 and IL10 by OCI-LY3 ABC-DLBCL cells was measured using a mesoscale assay. Inhibition of NFKB signaling by MALT1 inhibitors results in a decrease of IL6/10 secretion. OCI-LY3 cells were propagated in RPMI-1640 (Sigma Aldrich) supplemented with 10% fetal bovine serum (HyClone), 1 mM sodium pyruvate (Invitrogen), 2 mM L-glutamine (Sigma Aldrich) and 1% PenStrep (Sigma Aldrich). […]
property.label: IC50 (nM)
Give bare numbers, in nM.

Below: 10 compounds and their reported IC50.
{"compound": "CO[C@H](C)c1c(NC(=O)Nc2cnc(-n3nccn3)c(C#N)c2)cnc(C)c1Br", "property.label": "IC50", "readout.units": "nM", "recorded.result": 90}
{"compound": "CO[C@H](C)c1c(NC(=O)Nc2cnc(-n3nccn3)c(C(F)(F)F)c2)cnc(C)c1Cl", "property.label": "IC50", "readout.units": "nM", "recorded.result": 870}
{"compound": "COC(C)c1c(Br)c(C)nc(C)c1NC(=O)Nc1cnc(-n2nccn2)c(Cl)c1 (racemic)", "property.label": "IC50", "readout.units": "nM", "recorded.result": 2340}
{"compound": "CO[C@H](C)c1c(NC(=O)Nc2cnc(-n3nccn3)c(Cl)c2)cnc(C)c1C#N", "property.label": "IC50", "readout.units": "nM", "recorded.result": 750}
{"compound": "COc1nc(-n2nccn2)c(Cl)cc1NC(=O)Nc1cnc(C)c(C#N)c1[C@@H](C)OC", "property.label": "IC50", "readout.units": "nM", "recorded.result": 110}
{"compound": "CO[C@H](C)c1c(NC(=O)Nc2ccnc(C(F)(F)F)c2)cnc(C)c1Cl", "property.label": "IC50", "readout.units": "nM", "recorded.result": 680}
{"compound": "CO[C@H](C)c1c(C#N)cncc1NC(=O)Nc1cnc(-n2nccn2)c(Cl)c1", "property.label": "IC50", "readout.units": "nM", "recorded.result": 2800}
{"compound": "CO[C@H](C)c1c(NC(=O)Nc2cnc(OC(F)F)c(Cl)c2)cnc(C)c1Cl", "property.label": "IC50", "readout.units": "nM", "recorded.result": 930}
{"compound": "CO[C@@H](C)c1c(NC(=O)Nc2cnc(-n3nccn3)c(Cl)c2)cnc(C)c1Br", "property.label": "IC50", "readout.units": "nM", "recorded.result": 750}
{"compound": "CO[C@@H](C)c1c(NC(=O)Nc2cc(Cl)c(-n3nccn3)nc2C)cnc(C)c1C#N", "property.label": "IC50", "readout.units": "nM", "recorded.result": 250}

Okay, here is my list. What is IC50 for each of these?
1. CO[C@@H](C)c1c(NC(=O)Nc2cnc(OC(F)F)c(Cl)c2)cnc(C)c1C#N
2. COc1ncc(NC(=O)Nc2cnc(C)c(Cl)c2[C@H](C)OC)cc1C#N
3. COC(C)c1c(NC(=O)Nc2cnc(-n3nccn3)c(C(F)(F)F)c2)cnc(C)c1Br (single isomer, unassigned)

Result:
1. 60
2. 130
3. 100

Request: Recorded IC50 of COc1nc(-n2nccn2)c(Cl)cc1NC(=O)Nc1cnc(C)c(C#N)c1[C@H](C)OC , please.
Result: 150
